- assayed_target: HLA DRB1 *0405 (Homo sapiens, UniProt P01903+P01911, A100R/A169T/D86S/F76Y/I96L/K127E/L162R/M171V/N62H/P40V/Q125Y/R42H/S133A/S149N/S66Y/V115G/V209L/W38E)
- test_details: IC50nM to purified HLA | DRB1 *0405
Where no end group is shown, it is not given here.
recorded_metric: pIC50
By convention, pIC50 is the negative base-10 log of a molar concentration.

Worked set:
- sequence_data: "AAADFVAAWTLHAAA [SEQ ID NO: 41]"
  pIC50: 7.57
- sequence_data: "AAADFVAAFTLHAAA [SEQ ID NO: 43]"
  pIC50: 7.96
- sequence_data: "AAAEFVAAWTLHAAA [SEQ ID NO: 46]"
  pIC50: 7.57
- sequence_data: "AAAKFVAAWTLKAEA [SEQ ID NO: 35]"
  pIC50: 8.08
- sequence_data: "AAAHFVAANTLHAAA [SEQ ID NO: 29]"
  pIC50: 7.74
- sequence_data: "AAAKFVAAWTLKADA [SEQ ID NO: 30]"
  pIC50: 7.77
- sequence_data: "AAAHFVAAWTLKADA [SEQ ID NO: 31]"
  pIC50: 7.80
- sequence_data: "AAAEFVAAWTLKAAA [SEQ ID NO: 45]"
  pIC50: 8.01

Prompt: pIC50 for AAAEFVAAFTLHAAA [SEQ ID NO: 48] ?
Completion: 7.85

Prompt: Please do the same for AAAHFVAAYTLKAEA [SEQ ID NO: 37] as well.
Completion: 7.96

Prompt: Proceed to AAAHFVAAFTLKADA [SEQ ID NO: 33]
Completion: 7.72

Prompt: And for AAANFVAAYTLHAAA [SEQ ID NO: 52] ?
Completion: 7.72

Prompt: Another sequence: AAAHFVAANTLKADA [SEQ ID NO: 34]
Completion: 7.44

---

- assayed_target: HLA DRB1 *1101 (Homo sapiens, UniProt P01903+P01911, A100R/A169T/A87E/I96F/K41T/L162R/M171V/P40S/Q125H/Q178H/Q39Y/Q99D/R42S/S66Y/T262R/V115G/W38E)
- Sequence (P01903 26-254 limits assumed, other chains not shown): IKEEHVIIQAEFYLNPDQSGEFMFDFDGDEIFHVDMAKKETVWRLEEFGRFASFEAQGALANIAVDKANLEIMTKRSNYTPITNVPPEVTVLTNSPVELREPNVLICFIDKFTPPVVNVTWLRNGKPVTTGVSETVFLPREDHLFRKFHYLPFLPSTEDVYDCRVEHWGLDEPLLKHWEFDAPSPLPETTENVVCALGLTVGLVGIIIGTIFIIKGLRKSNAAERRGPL
- test_details: IC50nM to purified HLA | DRB1 *1101
Where no end group is shown, it is not given here.
Doc: threshold 0.04 µM (exclusive). Items with IC50 beneath it return Y; others return N.

Worked set:
- sequence_data: "AAAEFVAAYTLHAAA [SEQ ID NO: 47]"
  assigned_class: "Y"
- sequence_data: "AAAEFVAAFTLHAAA [SEQ ID NO: 48]"
  assigned_class: "N"
- sequence_data: "AAADFVAAWTLKAAA [SEQ ID NO: 40]"
  assigned_class: "Y"
- sequence_data: "AAADFVAAWTLHAAA [SEQ ID NO: 41]"
  assigned_class: "Y"
- sequence_data: "AAAKFVAAWTLKAEA [SEQ ID NO: 35]"
  assigned_class: "Y"

Prompt: Dear colleague, could you confirm whether IC50 of AAAHFVAAWTLKAEA [SEQ ID NO: 36] falls below 0.04 µM? Thanks.
Completion: N

Prompt: AAAEFVAANTLHAAA [SEQ ID NO: 49] ?
Completion: N

Prompt: Next sequence up: AAANFVAAWTLKAAA [SEQ ID NO: 50]
Completion: Y
